# Tested on: HK-2
# experimental.details: Cytotoxicity against human HK-2 cells assessed as reduction in cell survival at 50 uM incubated for 24 to 48 hrs by MTT assay
# Type: toxicity, cell-based
# assay.setup: hk-2, 50 µM, time 24-48 hrs
endpoint.label: Activity

[
  {
    "chemical.smiles": "O=C1C=C(CBr)C(=C(Br)Br)O1",
    "system.under.test": "HK-2",
    "recorded.measurement": "Toxic"
  },
  {
    "chemical.smiles": "CC1=CC(=O)OC1=C(Br)Br",
    "system.under.test": "HK-2",
    "recorded.measurement": "Toxic"
  },
  {
    "chemical.smiles": "O=C1C=C/C(=C/Br)O1",
    "system.under.test": "HK-2",
    "recorded.measurement": "Toxic"
  }
]
